Reference for the values: paper PMC10515640

Target: 14-3-3σ/C-RAF (Homo sapiens, UniProt P31947)
Construct: The 14-3-3 σ isoform (full-length for mass spectrometry and fluorescence anisotropy assays, ΔC for crystallography); made in house; host or cells: E. coli Rosetta 2(DE3)pLysS, pPROEX HTb vector
Sequence (P31947 whole entry, canonical isoform): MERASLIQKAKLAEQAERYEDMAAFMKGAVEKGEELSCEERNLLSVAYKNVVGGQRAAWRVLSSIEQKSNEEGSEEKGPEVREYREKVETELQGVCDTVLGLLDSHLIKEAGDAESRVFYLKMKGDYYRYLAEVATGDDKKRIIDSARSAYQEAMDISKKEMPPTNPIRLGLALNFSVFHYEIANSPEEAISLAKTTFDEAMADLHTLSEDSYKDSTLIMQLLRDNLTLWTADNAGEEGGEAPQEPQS
Test: Fluorescence anisotropy compound titration, FAM-labeled C-RAF peptide
Type: binding
Details: 10 nM C-RAF-FAM labeled peptide, 5 µM 14-3-3σ, overnight incubation; read-out: EC50 value C-RAF (FA compound titration)
Quantity Measured: EC50 (µM)

A = O=C(CCl)NCC1CCN(C(=O)C2(Oc3ccccc3)CCCC2)CC1 [compound 119]
B = CC(C)(Oc1ccc(Cl)cc1)C(=O)N1CCC(CCNC(=O)CCl)CC1 [compound 28]
Which record shows the lower EC50: the first, A , or the second, B ? The response must carry the label of the picked entry. A
(A: 18 µM, B: 40 µM)

====

Biological target: 14-3-3σ/ERα (Homo sapiens, UniProt P03372+P31947)
Construct: The 14-3-3 σ isoform (full-length for mass spectrometry and fluorescence anisotropy assays, ΔC for crystallography); made in house; host or cells: E. coli Rosetta 2(DE3)pLysS, pPROEX HTb vector
Experiment: Fluorescence anisotropy compound titration, FAM-labeled ERα peptide
Format: binding
Settings: 10 nM ERα-FAM labeled peptide, 1 µM 14-3-3σ, overnight incubation (24 h); read-out: EC50 value ERα (FA compound titration)
pEC50: −log10 of the molar value.
Quantity Measured: pEC50

# Compound, Quantity Measured, Measurement
records = [
    ("O=C(CCl)NCC1CCN(C(=O)C2(Oc3ccc(Cl)cc3)CCC(F)(F)CC2)CC1", "pEC50", 4.74),
    ("Cl.O=C(CCl)NCC1CCN(C(=O)C2(Nc3ccccc3)CCNCC2)CC1", "pEC50", 3.94),
    ("O=C(CCl)N1CCC2(CC1)CCN(C(=O)C1(Nc3ccc(Cl)cc3)CCOCC1)CC2", "pEC50", 5.10),
    ("CC(C)(Oc1ccc(Cl)cc1)C(=O)N1CCC(CNC(=O)CCl)CC1", "pEC50", 4.72),
    ("O=C(CCl)N1CC2(CCN(C(=O)C3(Nc4ccc(Cl)cc4)CCOCC3)CC2)C1", "pEC50", 4.80),
]

a = NC1CCC(Nc2ccc(Cl)cc2)(C(=O)N2CCC(CNC(=O)CCl)CC2)CC1 (stereo not shown)
b = CC(C)(Oc1ccc(Cl)cc1)C(=O)N1CCC(CCNC(=O)CCl)CC1
c = O=C(CCl)NCCCC1CCN(C(=O)C2(Nc3ccc(Cl)cc3)CCOCC2)CC1
Put the items in order so that reported pEC50 rises from first to last. Response format: the labels, sorted as the prompt asks. b, a, c
(b: 4.62, a: 5.10, c: 5.40)

A = O=C(CCl)NCCCC1CCN(C(=O)C2(Nc3ccc(Cl)cc3)CCNCC2)CC1
B = O=C(CCl)NCC1CCN(C(=O)C2(Oc3ccc(Cl)cc3)CCOCC2)CC1
Which value of pEC50 is greater, the one for A or the one for B ? The response must carry the label of the picked entry. B
(B: 5.05, A: 4.80)

1 = O=C(CCl)NCC1CCN(C(=O)C2(Nc3ccc(Cl)cc3)CCNCC2)CC1
2 = O=C(CCl)NCC1CC2(CCN(C(=O)C3(Nc4ccc(Cl)cc4)CCOCC3)CC2)C1
3 = O=C(CCl)NCC1CCN(C(=O)C2(Oc3ccc(Cl)cc3)CCCC2)CC1
4 = CC(C)(Oc1ccc(Cl)cc1)C(=O)N1CCC(CCCNC(=O)CCl)CC1
Put the items in order so that reported pEC50 rises from first to last. Response format: the labels, sorted as the prompt asks. 2, 3, 4, 1
(2: 4.01, 3: 4.82, 4: 5.05, 1: 5.70)

a = CC1CC(Nc2ccc(Cl)cc2)(C(=O)NCC2CC3(CCN(C(=O)CCl)CC3)C2)CC(C)O1 (stereo not shown)
b = Cl.O=C(CCl)NCC1CCN(C(=O)C2(Oc3ccc(Cl)cc3)CCNCC2)CC1
Which value of pEC50 is greater, the one for a or the one for b ? The response must carry the label of the picked entry. a

====

Target: 14-3-3σ/C-RAF (Homo sapiens, UniProt P31947)
Construct: The 14-3-3 σ isoform (full-length for mass spectrometry and fluorescence anisotropy assays, ΔC for crystallography); made in house; host or cells: E. coli Rosetta 2(DE3)pLysS, pPROEX HTb vector
Test: Fluorescence anisotropy compound titration, FAM-labeled C-RAF peptide
Format: binding
Details: 10 nM C-RAF-FAM labeled peptide, 5 µM 14-3-3σ, overnight incubation; read-out: EC50 value C-RAF (FA compound titration)
pEC50: −log10 of the molar value.
pEC50 by entry:

Use the examples below as a reference point.
# Compound, pEC50
records = [
    ("O=C(CCl)N1CCC2(CC1)CC(NC(=O)C1(Nc3ccc(Cl)cc3)CCOCC1)C2 [compound 163]", 4.24),
    ("O=C(CCl)NCC1CCN(C(=O)C2(Oc3ccc(Cl)cc3)CCCCC2)CC1 [compound 122]", "< 3.82"),
    ("O=C(CCl)NCC1CCN(C(=O)C2(Oc3ccc(Cl)cc3)CC2)CC1 [compound 93]", "< 3.82"),
]

# ---- query compound ----
Query: pEC50; subject: Cl.O=C(CCl)NCC1CCN(C(=O)C2(Oc3ccc(Cl)cc3)CCNCC2)CC1 [compound 129] < 3.82

====

Target: 14-3-3σ/C-RAF (Homo sapiens)
Construct: The 14-3-3 σ isoform (full-length for mass spectrometry and fluorescence anisotropy assays, ΔC for crystallography); made in house; host or cells: E. coli Rosetta 2(DE3)pLysS, pPROEX HTb vector
Experiment: Mass spectrometry dose response, compound binding to 14-3-3σ in the presence of C-RAF phosphopeptide
Details: 100 nM compound, 100 nM 14-3-3σ, C-RAF peptide 18 µM, 8h
Quantity Measured: Percentage (%) bound of compound to 14-3-3σ, CRAF 8h

Use the examples below as a reference point.
# Molecular String, Measurement
data = [
    ("CC(C)(Nc1ccccc1)C(=O)N1CCC(CNC(=O)CCl)CC1", 1.2),
    ("O=C(CCl)NCC1CCN(C(=O)C2(Oc3ccc(Cl)cc3)CCCCC2)CC1", 4.8),
    ("O=C(CCl)N1CCC2(CC1)CCN(C(=O)C1(Nc3ccc(Cl)cc3)CCOCC1)CC2", 8.0),
]

a = O=C(CCl)NCC1CCN(C(=O)C2(Nc3ccc(Cl)cc3)CCOCC2)CC1
b = O=C(CCl)NCC1CCN(C(=O)C2(Nc3ccccc3)CCCCC2)CC1
Which record shows the lower Percentage (%) bound of compound to 14-3-3σ, CRAF 8h: the first, a , or the second, b ? The response must carry the label of the picked entry. b
(b: 0%, a: 2.9%)

====

Biological target: 14-3-3σ (Homo sapiens)
Construct: The 14-3-3 σ isoform (full-length for mass spectrometry and fluorescence anisotropy assays, ΔC for crystallography); made in house; host or cells: E. coli Rosetta 2(DE3)pLysS, pPROEX HTb vector
Test: Mass spectrometry dose response, compound binding to 14-3-3σ in the absence of peptide (apo)
Conditions: 100 nM compound, 100 nM 14-3-3σ, 8h
Quantity Measured: Percentage (%) bound of compound to 14-3-3σ, APO 8h

I = O=C(CCl)N1CCC2(CC1)CN(C(=O)C1(Nc3ccc(Cl)cc3)CCOCC1)C2
II = NC1CCC(Nc2ccc(Cl)cc2)(C(=O)N2CCC(CNC(=O)CCl)CC2)CC1 (stereo not drawn)
Which record shows the lower Percentage (%) bound of compound to 14-3-3σ, APO 8h: the first, I , or the second, II ? The response must carry the label of the picked entry. I
(I: 0%, II: 1.9%)

I = O=C(CCl)NCC1CCN(C(=O)C2(Oc3ccc(Cl)cc3)CCOCC2)CC1
II = O=C(CCl)CCC1CCN(C(=O)C2(Nc3ccc(Cl)cc3)CCOCC2)CC1
Which record shows the lower Percentage (%) bound of compound to 14-3-3σ, APO 8h: the first, I , or the second, II ? The response must carry the label of the picked entry. I
(I: 0%, II: 35.7%)

A = O=C(CCl)NCC1CCN(C(=O)C2(Nc3ccccc3)CCCC2)CC1
B = CC(C)(Oc1ccc(Cl)cc1)C(=O)N1CCC(CNC(=O)CCl)CC1
Which value of Percentage (%) bound of compound to 14-3-3σ, APO 8h is greater, the one for A or the one for B ? The response must carry the label of the picked entry. B

a = O=C(CCl)NCC1CCN(C(=O)C2(Nc3ccccc3)CCCCC2)CC1
b = Cl.O=C(CCl)NCC1CCN(C(=O)C2(Nc3ccccc3)CCNCC2)CC1
Which record shows the lower Percentage (%) bound of compound to 14-3-3σ, APO 8h: the first, a , or the second, b ? The response must carry the label of the picked entry. a
